# test.protocol: IANBD-channel fluorescence artefacts in buffer – biochemical, artefact control for cardiac RTF calcium sensitizer project, confirmation (AID 504382)
# settings: IANBD fluorescence interference counterscreen, EC20 Ca2+, at 7.2 µM, stronger effect = higher value, scaled: EC20 calcium 0, EC100 calcium 100
Among all 2,500 compounds or so, about 460 (18%) were called active. A selection follows.
quantity.name: fluorescence artifact activation (%)

* COc1ccccc1-c1nnc(SCc2nc3ccccc3s2)n1C | 7.19
* O=C(O)/C=C/C(=O)NCc1csc2ccccc12 | 94.3
* CCCCN(Cc1ccccc1)S(=O)(=O)c1ccc2c(c1)n(C)c(=O)c(=O)n2C | 0.08
* COc1ccc2c3c(cccc13)C(=O)CC2 | 1.92
* COc1ccc(-c2ccc(C3C(C#N)=C(N)Oc4n[nH]c(C)c43)o2)cc1 (stereo unspecified) | 14.3
* Cc1[nH]nc2c1C(c1cc(Br)cs1)C(C#N)=C(N)O2 (stereo unspecified) | 0.04
* CSCC(O)Cn1ncc2ccccc2c1=O (stereo unspecified) | -0.02
* Cc1cc(C(=O)NNC(=S)NCc2ccccc2)cs1 | -0.07
* COc1cc(OC)c(OC)cc1/C=C1/Cc2ccccc2C1=O | -0.02
* CCN(CC)c1ccc(/C=C/C(=O)C2C(=O)C=C(C)OC2=O)cc1 (stereo unspecified) | 0.16
* C=CCOc1ccc(C2OC34CCCCC3C(C#N)(C#N)C2(C#N)C(=N)O4)cc1 (stereo unspecified) | 0.84
* CN(C)/C=C1\C=C2C(=O)c3ccccc3N2C1=O | 21
* O=C(NCc1csc2ccccc12)Nc1cc(Cl)cc(Cl)c1 | 0.06
* O=C(/C=C/c1ccccc1[N+](=O)[O-])Nc1cccnc1 | 0.87
* C/C(=N/NC(=O)CNC(=O)Cc1ccccc1)c1ccco1 | 0
* Cc1cc(C)n(NC(=S)NC2CCCCC2)c(=O)c1C#N | -0.01
* CN1CCc2c(sc3nc(SCC(N)=O)n(-c4ccccc4)c(=O)c23)C1 | -0.02
* COc1ccc(/C=c2\s/c(=C/C(=O)c3ccc(C)cc3)[nH]c2=O)cc1OC | 0.04
* CCN=C(NC#N)SCc1c(F)cccc1Cl | 0.17
* CCOC(=O)COc1c(Cl)cc(C2NC(=S)NC(c3ccccc3)=C2C(C)=O)cc1OC (stereo unspecified) | 6.87
* COC(=O)c1ccccc1-c1c2ccc(=N)cc-2oc2cc(N)ccc12 | 0.05
* O=C1c2cccc3cc([N+](=O)[O-])cc(c23)C(=O)N1CCN1CCCC1 | 0.08
* CC(OC(=O)c1c2c(nc3ccccc13)/C(=C\c1ccc3c(c1)OCO3)CCC2)C(=O)Nc1ccc(S(N)(=O)=O)cc1 (stereo unspecified) | 0.03
* CCCN1C=CC(=CC=C(C#N)C#N)C=C1 | 4.48
* COCCN1C(=O)/C(=C/c2ccc(N3CCCC3)cc2)SC1=S | 0.34
* O=C(NCCN1CCOCC1)c1ccc(CS(=O)(=O)c2c(Cl)cccc2Cl)o1 | -0.03
* CN(C)C(=O)CN1C(=O)C2CCCCN2C(=O)c2ccccc21 (stereo unspecified) | 0.04
* CC(=O)c1cccc(NC(=O)Cn2nc(-c3ccccc3Cl)ccc2=O)c1 | 0.29
* CC(=NNC(=O)c1ccncc1)c1ccc2ccccc2c1O | 0.08
* Cc1ccc(N=Cc2sc(O)c3ccccc23)c(C)c1 | 0.06
* COC(=O)C1=COC(C)C2CN3CCc4c([nH]c5ccccc45)C3CC12 (stereo unspecified) | 1.05
* CCc1ccc(-n2c(O)c(C=NCCN(CC)CC)c(=O)[nH]c2=O)cc1 | 2.92
* CCC1(O)C(=O)OCc2c1cc1n(c2=O)Cc2cc3cc(O)ccc3nc2-1 (stereo unspecified) | 0.27
* CN(Cc1ccccc1)C(=O)N1CCOCC1 | 0.11
* C[C@@H]1C=C(C(=O)N2CCOCC2)O[C@H](OCc2ccc(CO)cc2)C1 | 0.97
* C=CCN1C=CC(=CC=C(C#N)C#N)C=C1 | 251
* COc1ccc(C2OC34CCCCC3C(C#N)(C#N)C2(C#N)C(=N)O4)cc1 (stereo unspecified) | 0.16
* COCCNC(=O)c1c(CS(=O)(=O)c2ccccc2)noc1C(=O)NCc1ccccc1 | -0.04
* CCC(=O)N1CCC2(CC1)Oc1ccc(Cl)cc1C(=O)C21CC(c2cccnc2)=NO1 (stereo unspecified) | 5.01
* O=C(c1cccs1)N1CCN=C1SCc1cccc(F)c1 | 0.02
* CN1CCN(c2ccc(-c3cccc(NC(=O)COc4ccccc4)c3)nn2)CC1 | 9.37
* Cc1ccc(CC2C(=O)N(c3ccc(C)cc3)C(=O)C2C)cc1 (stereo unspecified) | 0.52
* COc1ccccc1C(=O)NN(C)C1=NS(=O)(=O)c2ccccc21 | 0.12
* COc1cc2c(cc1[N+](=O)[O-])-c1ccccc1C2 | 70.4
* CCNC(=O)NNC(=O)C1CC(c2cccs2)=NO1 (stereo unspecified) | 0
* CCN(C(=O)c1cc2ccccc2oc1=O)c1ccccc1 | 1.56
